Biological target: pepsin (Sus scrofa)
Sequence (P00791 60-385): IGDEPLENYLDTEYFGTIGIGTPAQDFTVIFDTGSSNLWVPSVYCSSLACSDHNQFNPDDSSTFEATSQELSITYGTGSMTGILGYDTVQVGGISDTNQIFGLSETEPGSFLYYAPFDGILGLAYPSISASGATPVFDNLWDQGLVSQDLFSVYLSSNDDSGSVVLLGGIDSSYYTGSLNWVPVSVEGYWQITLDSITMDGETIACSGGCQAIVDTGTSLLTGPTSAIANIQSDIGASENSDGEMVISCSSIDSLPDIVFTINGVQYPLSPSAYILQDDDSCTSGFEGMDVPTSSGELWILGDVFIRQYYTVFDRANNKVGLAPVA
Assay: in vitro
Conditions: simulated gastric fluid, pH 1.2
Starred links: 1 amine or outer side, 2 acyl side, 3 side chain; linkers in the order of their positions; H or OH if unused. Non-standard residues stand in square brackets, D forms with d. Residues, ends and D or L forms follow the SMILES beside them. X1 = CC(C)C[C@H](NC(=S)[C@H](Cc1ccc(O)cc1)N[*:1])C(=O)[*:2]; X6 = O=C([C@H](Cc1ccc(O)cc1)NC(=S)[C@H]1CCCN1[*:1])[*:2]; X3 = CC(C)C[C@H](N[*:1])C(=S)N[C@H](CC(C)C)C(=O)[*:2]; X5 = CC(C)C[C@H](NC(=S)[C@H](CC(C)C)N[*:1])C(=O)[*:2]; X4 = CC(C)C[C@H](N[*:1])C(=S)N1CCC[C@@H]1C(=O)[*:2]; NMeL = CN[C@@H](CC(C)C)C(=O)O; dNMeL = CN[C@H](CC(C)C)C(=O)O
Value kind: remaining at 2 h (%)

Look over these answered cases.
CC(C)C[C@@H]1NC(=O)[C@H](Cc2ccc(O)cc2)NC(=O)[C@H]2CCCN2C(=O)[C@H](CC(C)C)NC(=O)[C@H](CC(C)C)NC(=O)[C@@H](CC(C)C)NC1=O [compound 10, cyclo(-D-Leu^1-Leu-Leu-D-Pro-Tyr-Leu^6-)] (cyclo(LL[dP]YL[dL])): 16
CC(C)C[C@@H]1NC(=O)[C@@H](CC(C)C)NC(=S)[C@H](CC(C)C)NC(=O)[C@H](Cc2ccc(O)cc2)NC(=O)[C@H]2CCCN2C(=O)[C@H](CC(C)C)NC1=O [10f] (cyclo(LL[dP]Y[X3])): 44
CC(C)C[C@@H]1NC(=O)[C@H](Cc2ccc(O)cc2)NC(=O)[C@H]2CCCN2C(=O)[C@H](CC(C)C)NC(=S)[C@H](CC(C)C)NC(=O)[C@@H](CC(C)C)NC1=O [10b] (cyclo(L[dL][X5][dP]Y)): 27
CC(C)C[C@@H]1NC(=O)[C@H](Cc2ccc(O)cc2)NC(=O)[C@H]2CCCN2C(=S)[C@H](CC(C)C)NC(=O)[C@H](CC(C)C)NC(=O)[C@@H](CC(C)C)NC1=O [10c] (cyclo(L[dL]L[X4]Y)): 26
CC(C)C[C@@H]1NC(=O)[C@H](Cc2ccc(O)cc2)NC(=S)[C@H]2CCCN2C(=O)[C@H](CC(C)C)NC(=O)[C@H](CC(C)C)NC(=O)[C@@H](CC(C)C)NC1=O [10d] (cyclo(LL[X6]L[dL])): 29

(a) CC(C)C[C@@H]1NC(=O)[C@@H](CC(C)C)NC(=O)[C@H](CC(C)C)NC(=S)[C@H](Cc2ccc(O)cc2)NC(=O)[C@H]2CCCN2C(=O)[C@H](CC(C)C)NC1=O [10e] (cyclo(LL[dP][X1][dL]))
(b) CC(C)C[C@@H]1NC(=O)[C@H](Cc2ccc(O)cc2)NC(=O)[C@H]2CCCN2C(=O)[C@H](CC(C)C)NC(=O)[C@H](CC(C)C)N(C)C(=O)[C@@H](CC(C)C)NC1=O [10h] (cyclo(L[dL][NMeL]L[dP]Y))
(c) CC(C)C[C@@H]1NC(=O)[C@@H](CC(C)C)N(C)C(=O)[C@H](CC(C)C)NC(=O)[C@H](Cc2ccc(O)cc2)NC(=O)[C@H]2CCCN2C(=O)[C@H](CC(C)C)NC1=O [10g] (cyclo(LL[dP]YL[dNMeL]))
Parameters: sort_field (remaining at 2 h), sort_dir (desc). Form field (ranking): labels in requested order.
a, b, c
